Some compounds, each annotated with its measured residual activity.
# TARGET OR SYSTEM: Serine/threonine-protein kinase TAO1 (Homo sapiens) (UniProt Q7L7X3)
# Sequence (Q7L7X3 whole entry): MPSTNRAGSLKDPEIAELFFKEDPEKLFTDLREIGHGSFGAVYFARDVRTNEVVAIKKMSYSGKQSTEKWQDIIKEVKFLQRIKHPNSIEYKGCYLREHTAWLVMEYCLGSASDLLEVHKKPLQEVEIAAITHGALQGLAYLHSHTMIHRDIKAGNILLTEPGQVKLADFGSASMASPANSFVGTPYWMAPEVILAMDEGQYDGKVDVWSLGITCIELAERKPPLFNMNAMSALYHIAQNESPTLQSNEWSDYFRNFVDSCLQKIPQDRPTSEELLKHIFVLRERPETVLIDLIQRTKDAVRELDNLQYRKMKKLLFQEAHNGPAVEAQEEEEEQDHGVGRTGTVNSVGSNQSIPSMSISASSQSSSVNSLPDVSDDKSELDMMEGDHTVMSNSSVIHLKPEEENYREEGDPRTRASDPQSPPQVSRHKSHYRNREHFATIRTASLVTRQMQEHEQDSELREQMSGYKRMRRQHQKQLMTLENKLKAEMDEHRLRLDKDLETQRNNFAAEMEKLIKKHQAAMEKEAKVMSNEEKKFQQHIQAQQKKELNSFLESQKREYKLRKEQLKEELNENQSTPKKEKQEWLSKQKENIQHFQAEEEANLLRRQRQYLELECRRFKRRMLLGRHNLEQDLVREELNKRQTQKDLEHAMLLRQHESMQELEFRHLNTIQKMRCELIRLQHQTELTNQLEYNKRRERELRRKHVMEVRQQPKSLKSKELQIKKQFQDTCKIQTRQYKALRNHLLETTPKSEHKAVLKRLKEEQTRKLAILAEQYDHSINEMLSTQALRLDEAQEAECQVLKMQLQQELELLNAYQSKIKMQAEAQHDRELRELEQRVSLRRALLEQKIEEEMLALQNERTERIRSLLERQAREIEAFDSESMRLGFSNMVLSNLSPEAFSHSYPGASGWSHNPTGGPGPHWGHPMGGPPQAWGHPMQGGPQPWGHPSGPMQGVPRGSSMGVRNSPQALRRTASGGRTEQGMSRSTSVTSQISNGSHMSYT
# CONDITION SUMMARY: at 10 µM
READOUT LABEL: residual activity (%)

[[record]]
compound = "O=C1Nc2ccccc2/C1=C\\c1c(Cl)[nH]c2ccccc12"
readout_label = "residual activity"
unit_label = "%"
value_measured = 63

[[record]]
compound = "O=S(=O)(NCCNC/C=C/c1ccc(Br)cc1)c1cccc2cnccc12"
readout_label = "residual activity"
unit_label = "%"
value_measured = 59

[[record]]
compound = "O=C(O)/C=C/c1cc(Br)c(Br)c(Br)c1Br"
readout_label = "residual activity"
unit_label = "%"
value_measured = 29

[[record]]
compound = "Nc1ncnc2c1cnn2-c1ccccc1"
readout_label = "residual activity"
unit_label = "%"
value_measured = 80

[[record]]
compound = "COc1cc2ncnc(Nc3cccc(Cl)c3)c2cc1OC"
readout_label = "residual activity"
unit_label = "%"
value_measured = 76

[[record]]
compound = "CC(C)c1nn(-c2c(Cl)cccc2Cl)c2nc(Cc3ccc(OCCO)cc3)[nH]c(=O)c12"
readout_label = "residual activity"
unit_label = "%"
value_measured = 13

[[record]]
compound = "Cn1c2ccccc2c2c3c(c4c5ccccc5n(CCC#N)c4c21)CNC3=O"
readout_label = "residual activity"
unit_label = "%"
value_measured = 10

[[record]]
compound = "Nc1n[nH]c2nc3ccccc3nc12"
readout_label = "residual activity"
unit_label = "%"
value_measured = 75

[[record]]
compound = "c1ccc(-c2cnc(Nc3ccc(OCCN4CCCC4)cc3)s2)cc1"
readout_label = "residual activity"
unit_label = "%"
value_measured = 28

[[record]]
compound = "O=C1NC(=O)C(c2cn(CCCn3ccnc3)c3ccccc23)=C1Nc1ccccc1"
readout_label = "residual activity"
unit_label = "%"
value_measured = 37

[[record]]
compound = "O=C(NC(NC(=S)Nc1ccc(F)c([N+](=O)[O-])c1)C(Cl)(Cl)Cl)C(c1ccccc1)c1ccccc1 (stereo unspecified)"
readout_label = "residual activity"
unit_label = "%"
value_measured = 83

